# Assay explanation: Quantitative High-Throughput drug screen in 47 multiple myeloma cell lines against the NCATS MIPE library collection: KMS12PE_JCRB cell viability assay (AID 1918972); also: nearly all actives have a fitted effect of over 30% in size;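 as to viability: 100% = DMSO only wells and 0% = wells with media alone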
# Protocol conditions: KMS12PE myeloma viability, CellTiter-Glo ATP, 48 h; series mostly up to 45.8 µM
Inconclusive results are not listed. Calls of active or inactive are those of the source. Calls follow the shape of the dose curve; as a rule, active = well fitted cell-killing curve with a large enough effect; inconclusive = small, poorly fitted or top-dose-only effect, or effect the other way; inactive = no such curve, though single readings can be large or run the other way.
Classes used: 1 (yes) = active, 0 (no) = inactive

{"Compound": "Nc1nc(Cl)nc2c1ncn2[C@@H]1O[C@H](CO)[C@@H](O)[C@H]1F", "Label class": "1 (yes)"}
{"Compound": "Cc1cc2nc3c(=O)[nH]c(=O)nc-3n(CC(O)C(O)C(O)CO)c2cc1C (centres undefined)", "Label class": "0 (no)"}
{"Compound": "CC[C@H](NC(=O)[C@H](C)NC)C(=O)N1C[C@@H](O)C[C@H]1Cc1c(-c2[nH]c3cc(F)ccc3c2C[C@H]2C[C@H](O)CN2C(=O)[C@H](CC)NC(=O)[C@H](C)NC)[nH]c2cc(F)ccc12", "Label class": "1 (yes)"}
{"Compound": "C[C@@]1(C(=O)Nc2ccc(F)nc2)CCCN1c1nc(Nc2cc(C3CC3)[nH]n2)c2cccn2n1", "Label class": "1 (yes)"}

* * *

# Assay explanation: qHTS of pediatric cancer cell lines to identify multiple opportunities for drug repurposing: Confirmatory screen for SK-N-MC cells (AID 1347111);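 also: potency is read from the fitted curve at half-maximal effect; cells exposed to compound for 48 h before the readout; nearly all actives have a fitted effect of over 70% in size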
# Protocol conditions: SK-N-MC cell viability; series mostly up to 45.9 µM
Results filed as inconclusive are left out. The source made the active and inactive calls. Calls come from the whole dose curve; as a rule, active = well fitted cell-killing curve with a large enough effect; inconclusive = small, poorly fitted or top-dose-only effect; inactive = no such curve, though single readings can be large or run the other way.
Examples of compounds with documented Potency follow.
Outcome measure: Potency

{"Compound": "Cc1cccc(-c2[nH]c(C(C)(C)C)nc2-c2ccc3c(c2)OCO3)n1", "Assay result": "7.37 µM (active)"}
{"Compound": "CSc1cccc(Nc2ncc3cc(-c4c(Cl)cccc4Cl)c(=O)n(C)c3n2)c1", "Assay result": "2.61 µM (active)"}
{"Compound": "Cc1ccc(S(=O)(=O)Nc2nc3ccccc3nc2Nc2ccc3nsnc3c2)cc1", "Assay result": "0.256 µM (active)"}
{"Compound": "CO[C@H]1/C=C\\O[C@@]2(C)Oc3c(C)c(O)c4c(O)c(c(C=NN5CCN(C6CCCC6)CC5)c(O)c4c3C2=O)NC(=O)C(C)=CC=C[C@H](C)[C@H](O)[C@@H](C)[C@@H](O)[C@@H](C)[C@H](OC(C)=O)[C@H]1C", "Assay result": "20.8 µM (active)"}
{"Compound": "CC1(C)CC(=O)c2c(C(F)(F)F)nn(-c3ccc(C(N)=O)c(NC4CCC(O)CC4)c3)c2C1 (stereo not drawn)", "Assay result": "0.165 µM (active)"}
{"Compound": "C=C1[C@H](n2cnc3c(=O)[nH]c(N)nc32)C[C@H](O)[C@H]1CO", "Assay result": "7.37 µM (active)"}
{"Compound": "COc1cc2c(cc1Cc1cccc(Cl)c1F)c(=O)c(C(=O)O)cn2[C@H](CO)C(C)C", "Assay result": "14.7 µM (active)"}
{"Compound": "CC(C)C[C@@H](C(=O)N[C@H](C(=O)OC1CCCC1)c1ccccc1)[C@H](O)C(=O)NO", "Assay result": "20.8 µM (active)"}

* * *

# Assay explanation: Primary qHTS for inhibitors of nuclear receptor binding SET domain protein 2 (NSD2) in an isogenic RCH-ACV NSD2 p.E1099K mutant (9B) (AID 1645876); also: nearly all actives have a fitted effect of over 70% in size
# Protocol conditions: RCH-ACV (leukaemia line) NSD2 E1099K (9B) viability, CellTiter-Glo, 72 h; series mostly up to 44.9 µM
Records with an inconclusive call do not appear. Active and inactive are the calls of the source. Calls follow the shape of the dose curve; as a rule, active = well fitted inhibition curve with a large enough effect; inconclusive = small, poorly fitted or top-dose-only effect; inactive = flat fitted curve, though single readings scatter.
Classes used: yes for active, no for inactive

{"Compound": "CCOC(=O)[C@@H](N)CCC(=O)N[C@@H](CSCc1ccccc1)C(=O)N[C@@H](C(=O)OCC)c1ccccc1", "Label class": "yes"}
{"Compound": "CS(=O)(=O)c1ccc(C2=C(c3ccccc3)C(=O)OC2)cc1", "Label class": "no"}
{"Compound": "COC(=O)Nc1ccc(-c2nc(N3CCOCC3)c3cnn(C4CCN(C(=O)OC)CC4)c3n2)cc1", "Label class": "yes"}
{"Compound": "NCC1CCC(C(=O)O)CC1 (configuration not stated)", "Label class": "no"}
{"Compound": "CC(C)CNc1ccnc(NCc2csc(-c3ccccc3)n2)n1", "Label class": "yes"}
{"Compound": "CN1N=C(N)c2cn([C@@H]3O[C@H](COP(=O)(O)O)[C@@H](O)[C@@H]3O)c3ncnc1c23", "Label class": "yes"}
{"Compound": "CC[C@H](C=C[C@@H](C)[C@H]1CC[C@H]2[C@@H]3CC=C4C[C@@H](O)CC[C@]4(C)[C@@H]3CC[C@]12C)C(C)C", "Label class": "no"}
{"Compound": "COc1c(C)cnc(Cn2cnc3c(Cl)nc(N)nc32)c1C", "Label class": "yes"}
{"Compound": "CSc1cccc(Nc2ncc3cc(-c4c(Cl)cccc4Cl)c(=O)n(C)c3n2)c1", "Label class": "yes"}
{"Compound": "COc1ccc2nc3cc(Cl)ccc3c(Nc3cc(CN4CCCC4)c(O)c(CN4CCCC4)c3)c2n1", "Label class": "yes"}
{"Compound": "CCCCC[C@H](O)C=C[C@H]1[C@H](O)CC(=O)[C@H]1CC=CCCCC(=O)O", "Label class": "yes"}
{"Compound": "CCC(C)SSc1ncc[nH]1 (configuration not stated)", "Label class": "yes"}
{"Compound": "CCOc1ccccc1N=Nc1c(C)[nH]n(-c2nc(-c3ccccc3)cs2)c1=O", "Label class": "no"}
{"Compound": "CN(C)CC[C@H](CSc1ccccc1)Nc1ccc(S(=O)(=O)NC(=O)c2ccc(N3CCN(Cc4ccccc4-c4ccc(Cl)cc4)CC3)cc2)cc1[N+](=O)[O-]", "Label class": "yes"}
{"Compound": "Cc1nc(C(=O)NCC(=O)O)c(O)c2ccc(Oc3ccccc3)cc12", "Label class": "no"}
{"Compound": "Cc1ccc(C(=O)N(CCCN)[C@@H](c2nc3cc(Cl)ccc3c(=O)n2Cc2ccccc2)C(C)C)cc1", "Label class": "yes"}
{"Compound": "CCN1CCC(n2cc(CNc3cc(Cl)c4ncc(C#N)c(Nc5ccc(F)c(Cl)c5)c4c3)nn2)CC1", "Label class": "yes"}
{"Compound": "Cc1cccc2c1CC[C@H](CN1CCC(c3c(Cl)cccc3Cl)CC1)C[C@@H]2O", "Label class": "yes"}
{"Compound": "CC(C)(OCc1nn(Cc2ccccc2)c2ccccc12)C(=O)O", "Label class": "no"}
{"Compound": "COc1cc2c(cc1Cc1cccc(Cl)c1F)c(=O)c(C(=O)O)cn2[C@H](CO)C(C)C", "Label class": "yes"}
{"Compound": "Cc1cccc(Nc2nc(N[C@@H]3CCCC[C@H]3N)ncc2C(N)=O)c1", "Label class": "yes"}
{"Compound": "O=C(Nc1ncc(SCCN2CCCC2)s1)[C@]1(c2ccc(S(=O)(=O)C3CC3)cc2)C[C@@H]1C1CCCCC1", "Label class": "yes"}
{"Compound": "CCCCOCCOc1nc(-c2ccc(C(=O)O)c(F)c2)sc1C", "Label class": "no"}
{"Compound": "CC(C)C[C@@H](C(=O)N[C@H](C(=O)OC1CCCC1)c1ccccc1)[C@H](O)C(=O)NO", "Label class": "yes"}
{"Compound": "O=C(Nc1cccc(Cl)c1)Nc1ncc(CCNc2ncnc3ccsc23)s1", "Label class": "yes"}
{"Compound": "C[C@@]1(C(=O)Nc2ccc(F)nc2)CCCN1c1nc(Nc2cc(C3CC3)[nH]n2)c2cccn2n1", "Label class": "yes"}
{"Compound": "CN(C)CCN(C)C(=O)c1ccc(NC(=O)Nc2ccc(-c3nc(N4CCOCC4)c4ccn(CC(F)(F)F)c4n3)cc2)cc1", "Label class": "yes"}
{"Compound": "CNC(=O)c1cc(Oc2ccc(NC(=O)Nc3ccc(Cl)c(C(F)(F)F)c3)c(F)c2)ccn1", "Label class": "yes"}
{"Compound": "O=c1cc(-c2ccc(O)c(O)c2)oc2cc(O)cc(O)c12", "Label class": "yes"}
{"Compound": "Nc1nc(Cl)nc2c1ncn2[C@@H]1O[C@H](CO)[C@@H](O)[C@H]1F", "Label class": "yes"}
{"Compound": "CN(C(Cc1ccc(OS(=O)(=O)c2cccc3cnccc23)cc1)C(=O)N1CCN(c2ccccc2)CC1)S(=O)(=O)c1cccc2cnccc12 (configuration not stated)", "Label class": "yes"}
{"Compound": "COc1ccc(CCC(=O)Nc2nc3ccc(Cl)cc3s2)cc1OC", "Label class": "no"}
{"Compound": "O=[N+]([O-])c1ccc(Nc2ccccc2-c2ccccc2)c2nonc12", "Label class": "yes"}
{"Compound": "CC(C)C[C@@H](N)[C@H](O)C(=O)N[C@H](C(=O)N[C@H](C(=O)N[C@@H](CC(=O)O)C(=O)O)C(C)C)C(C)C", "Label class": "no"}
{"Compound": "COc1nc(C)cnc1NS(=O)(=O)c1cccnc1-c1ccc(-c2nnco2)cc1", "Label class": "no"}
{"Compound": "Cc1ccc(C(=O)N(CCCN)[C@@H](c2oc3cc(Cl)ccc3c(=O)c2Cc2ccccc2)C(C)C)cc1", "Label class": "yes"}
{"Compound": "CC1=C[C@@H]2[C@@H]([C@@H](O)C[C@@]3(C)[C@H]2C[C@@H](C)[C@]3(O)C(=O)CO)[C@@]2(C)Cc3cnn(-c4ccccc4)c3C=C12", "Label class": "yes"}
